# ASSAY NOTES: CD69 Whole Blood Assay (CD69 Hu Blood FACS)
# Format: cell-based, human
# MEASUREMENT SETUP: Lymphocyte; human whole blood, anti-IgM activated B lymphocytes, FACS; IC70; Table 2 (unit inferred); read-out: CD69 Hu Blood FACS (IC70)
MEASURE NAME: IC70
Remember to put the unit after the number in your answer.

molecule="C[C@H]1c2cc(Nc3cc(-c4ccnc(N5CCn6c(cc7c6CC(C)(C)C7)C5=O)c4CO)cn(C)c3=O)nn2CCN1C [Example 319]" measure_name=IC70 measured_value="16.7 nM"

What does the record list as IC70 for COC1CN(c2ccc(Nc3cc(-c4ccnc(N5CCn6c(cc7c6CC(C)(C)C7)C5=O)c4CO)cn(C)c3=O)nc2)C1 [Example 323] ?
279 nM

C[C@H]1CN(C2COC2)CCN1c1cnc(Nc2cc(-c3ccnc(N4CCn5c(cc6c5CC(C)(C)C6)C4=O)c3CO)cn(C)c2=O)cn1 [Example 235] , same question.
112 nM

CN(Cc1cc(Nc2cc(-c3ccnc(N4CCn5c(cc6c5CC(C)(C)C6)C4=O)c3CO)cn(C)c2=O)nn1C)C1COC1 [Example 302] , same question.
22.8 nM

C[C@@H]1COCCN1C(=O)c1ccc(Nc2cc(-c3ccnc(N4CCn5c(cc6c5CC(C)(C)C6)C4=O)c3CO)nn(C)c2=O)nc1 [Example 248] , same question.
70.3 nM

CC(=O)N1CCc2nc(Nc3cc(-c4ccnc(N5CCn6c7c(c(F)c6C5=O)CCCC7)c4CO)cn(C)c3=O)sc2C1 [Example 234] , same question.
183 nM

----------
# ASSAY NOTES: CD69 Whole Blood Assay (CD69 Hu Blood FACS)
# Type: cell-based, human
# MEASUREMENT SETUP: Lymphocyte; human whole blood, anti-IgM activated B lymphocytes, FACS; IC70; Table 2 (unit inferred); read-out: CD69 Hu Blood FACS (IC70)
# Excerpt: A CD69 Whole Blood Assay can be conducted on Formula I compounds to determine the ability of compounds to inhibit the production of CD69 by B lymphocytes in human whole blood activated by crosslinking surface IgM with goat F(ab′)2 anti-human IgM (Example 907). CD69 is a type II C-type lectin involved in lymphocyte migration and cytokine secretion. […]
MEASURE NAME: log10 of IC70 (log10 of the value in nM)
Scale type: logarithmic (base 10). Underlying IC70 unit: nM.

Recorded results for 3 compounds are shown here.
compound=Cc1cc(Nc2cc(-c3ccnc(-n4ncc5c6c(sc5c4=O)CCCC6)c3CO)cn(C)c2=O)no1 measured_value=2.93
compound=CN1CCn2nc(Nc3cc(-c4ccnc(-n5ccn6c7c(cc6c5=O)CCCC7)c4CO)cn(C)c3=O)cc2C1 measured_value=2.00
compound=Cc1cnc(Nc2cc(-c3ccnc(N4CCn5c(cc6c5CC(C)(C)C6)C4=O)c3CO)cn(C)c2=O)cn1 measured_value=2.67

What does the record list as log10 of IC70 for CN1CCC(c2ccc(Nc3cc(-c4ccnc(N5CCn6c(cc7c6CC(C)(C)C7)C5=O)c4CO)cn(C)c3=O)nc2)CC1 ?
1.53

CN1CCn2nc(Nc3cc(-c4ccnc(-n5ncc6c(cc7n6CCCC7)c5=O)c4CO)cn(C)c3=O)cc2C1 , same question.
2.64

Cn1cc(-c2ccnc(-n3ncc4c5n(cc4c3=O)CCCC5)c2CO)cc(Nc2ccc(N3CCN(C4COC4)CC3)cn2)c1=O , same question.
3.78

Cn1cc(-c2ccnc(N3CCn4c(cc5c4CC(C)(C)C5)C3=O)c2CO)cc(Nc2cn(C3COC3)cn2)c1=O , same question.
2.24

CC1c2cc(Nc3cc(-c4ccnc(N5CCn6c(cc7c6CCCC7)C5=O)c4CO)cn(C)c3=O)nn2CCN1C (stereo not drawn) , same question.
2.10

COc1ccc(Nc2cc(-c3ccnc(N4CCn5c(cc6c5CC(C)(C)C6)C4=O)c3CO)cn(C)c2=O)nc1 , same question.
2.53

COc1ccc(Nc2cc(-c3ccnc(N4CCn5c(cc6c5CC(C)(C)C6)C4=O)c3CO)cn(C)c2=O)nn1 , same question.
2.78
